These data points were gathered from the supplement of paper PMC10567573.

B1: FCHO1 (parent)
chain: HLELTRKLQDLIKDVLRYGEEQLK

Variants of: B1
Test: protein stability index of a GFP-peptide fusion (GPS, HEK-293T) (PSI 1-6); higher = more stable;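 also: lentivirally expressed fusions sorted by FACS into six bins by GFP to DsRed ratio, PSI derived from sequencing read proportions per bin multiplied by bin number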
Conditions: c terminus: a fixed tail appended
quantity: protein stability index
// response body must contain only the number

Example results:
Tell us which protein stability index value is on record for K7T
2.96

Tell us which protein stability index value is on record for R17Y
2.08

Tell us which protein stability index value is on record for L4D
2.01

Tell us which protein stability index value is on record for K7L
3.41

Tell us which protein stability index value is on record for L8V
1.97

Tell us which protein stability index value is on record for V15D
4.22

Next:
Tell us which protein stability index value is on record for T5I
2.38

Tell us which protein stability index value is on record for Y18S
1.82

Tell us which protein stability index value is on record for V15Q
2.49
